- MEASURED_ON: TYK2 (Homo sapiens, UniProt P29597)
- Construct: MOLT-4 cells (ATCC CRL-1582) were acquired from ATCC and maintained in RPMI-1640 medium; host or cells: MOLT-4 cells
- Sequence (P29597 whole entry): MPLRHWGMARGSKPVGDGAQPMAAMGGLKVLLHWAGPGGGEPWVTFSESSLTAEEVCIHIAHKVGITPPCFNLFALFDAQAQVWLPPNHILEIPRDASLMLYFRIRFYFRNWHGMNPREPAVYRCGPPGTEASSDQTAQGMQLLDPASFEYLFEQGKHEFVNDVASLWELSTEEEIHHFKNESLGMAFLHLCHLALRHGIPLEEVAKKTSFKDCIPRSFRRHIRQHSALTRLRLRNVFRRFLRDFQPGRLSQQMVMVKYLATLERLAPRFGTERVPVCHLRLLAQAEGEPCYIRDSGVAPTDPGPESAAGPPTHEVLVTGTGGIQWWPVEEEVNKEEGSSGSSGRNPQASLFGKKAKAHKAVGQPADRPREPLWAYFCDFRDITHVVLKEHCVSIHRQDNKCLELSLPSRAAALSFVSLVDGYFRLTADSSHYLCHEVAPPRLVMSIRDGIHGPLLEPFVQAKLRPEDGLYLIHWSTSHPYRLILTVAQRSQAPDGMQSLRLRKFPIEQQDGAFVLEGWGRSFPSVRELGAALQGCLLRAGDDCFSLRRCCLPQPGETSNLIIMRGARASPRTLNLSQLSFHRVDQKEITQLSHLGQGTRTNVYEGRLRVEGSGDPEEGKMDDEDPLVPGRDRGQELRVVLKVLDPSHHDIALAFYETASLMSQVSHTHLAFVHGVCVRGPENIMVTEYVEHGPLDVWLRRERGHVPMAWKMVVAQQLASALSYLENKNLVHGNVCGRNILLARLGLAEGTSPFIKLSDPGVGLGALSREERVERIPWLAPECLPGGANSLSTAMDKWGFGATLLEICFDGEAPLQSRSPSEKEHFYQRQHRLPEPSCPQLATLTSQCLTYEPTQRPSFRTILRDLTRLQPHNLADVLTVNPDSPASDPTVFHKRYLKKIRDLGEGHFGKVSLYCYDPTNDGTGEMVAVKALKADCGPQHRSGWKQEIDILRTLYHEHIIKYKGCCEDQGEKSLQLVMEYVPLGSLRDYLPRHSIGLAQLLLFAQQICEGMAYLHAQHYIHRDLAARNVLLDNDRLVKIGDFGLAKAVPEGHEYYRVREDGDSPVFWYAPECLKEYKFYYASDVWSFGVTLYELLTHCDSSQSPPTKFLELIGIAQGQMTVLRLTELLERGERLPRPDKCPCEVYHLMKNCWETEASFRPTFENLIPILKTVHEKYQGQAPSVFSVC
- EXPERIMENT_SUMMARY: TYK2 degradation in MOLT-4 cells (Western blot, TYK2 level relative to DMSO-treated cells)
- Type: cell-based
- EXPERIMENTAL_SETUP: MOLT-4 cells, 24 hours after treatment, TYK2 level related to DMSO-only cells
- Experimental: With reference to FIGS. 2A-2B. MOLT-4 cells (ATCC CRL-1582) were acquired from ATCC and maintained in RPMI-1640 medium supplemented with 10% fetal bovine serum (ATCC 30-2020), the combination henceforth referred to as “media”. […] Captured images were processed using Image Lab software (BioRad). Using the volume tool, band intensities within rectangles of equal area were determined with the local subtraction method. […]
EXPERIMENTAL_READOUT: Tyk2 Degradation Score

Consider the reported Tyk2 Degradation Score for these compounds:
{"COMPOUND": "CNC(=O)c1nnc(NC(=O)CCN2CCC(CC3CN(c4ccc5c(c4)C(=O)N(C4CCC(=O)NC4=O)C5=O)C3)CC2)cc1Nc1cccc(-c2ncn(C)n2)c1OC (stereo not shown)", "MEASURED_ON": "TYK2 (Homo sapiens, UniProt P29597)", "EXPERIMENTAL_READOUT": "Tyk2 Degradation Score", "TEST_VALUE": "++ (51-75% degradation)"}
{"COMPOUND": "CNC(=O)c1nnc(NC(=O)CCN2CC(CN3CCN(C4CCN(c5ccc6c(c5)C(=O)N(C5CCC(=O)NC5=O)C6=O)CC4)CC3)C2)cc1Nc1cccc(-c2ncn(C)n2)c1OC (stereo not shown)", "MEASURED_ON": "TYK2 (Homo sapiens, UniProt P29597)", "EXPERIMENTAL_READOUT": "Tyk2 Degradation Score", "TEST_VALUE": "+++ (>75% degradation)"}
{"COMPOUND": "CNC(=O)c1nnc(NC(=O)CCN2CCN(c3cc(N4CCN(c5ccc6c(c5)C(=O)N(C5CCC(=O)NC5=O)C6=O)CC4)ncn3)CC2)cc1Nc1cccc(-c2ncn(C)n2)c1OC (stereo not shown)", "MEASURED_ON": "TYK2 (Homo sapiens, UniProt P29597)", "EXPERIMENTAL_READOUT": "Tyk2 Degradation Score", "TEST_VALUE": "+ (25-50% degradation)"}
{"COMPOUND": "CNC(=O)c1nnc(NC(=O)CCN2CCC(COCC3CCN(c4ccc5c(c4)C(=O)N(C4CCC(=O)NC4=O)C5=O)CC3)CC2)cc1Nc1cccc(-c2ncn(C)n2)c1OC (stereo not shown)", "MEASURED_ON": "TYK2 (Homo sapiens, UniProt P29597)", "EXPERIMENTAL_READOUT": "Tyk2 Degradation Score", "TEST_VALUE": "+ (25-50% degradation)"}
{"COMPOUND": "CNC(=O)c1nnc(NC(=O)CCN2CCC(CNc3ccc4c(c3)C(=O)N(C3CCC(=O)NC3=O)C4=O)CC2)cc1Nc1cccc(-c2ncn(C)n2)c1OC (stereo not shown)", "MEASURED_ON": "TYK2 (Homo sapiens, UniProt P29597)", "EXPERIMENTAL_READOUT": "Tyk2 Degradation Score", "TEST_VALUE": "++ (51-75% degradation)"}

Please state recorded Tyk2 Degradation Score (tested on TYK2 (Homo sapiens, UniProt P29597)) of CNC(=O)c1nnc(NC(=O)CCNCC2CCN(c3ccc4c(c3)C(=O)N(C3CCC(=O)NC3=O)C4=O)CC2)cc1Nc1cccc(-c2ncn(C)n2)c1OC (stereo not shown)
++ (51-75% degradation)

Please state recorded Tyk2 Degradation Score (tested on TYK2 (Homo sapiens, UniProt P29597)) of CNC(=O)c1nnc(NC(=O)CCN2CCC(CCC3CCN(c4ccc(Oc5ccc6c(c5)C(=O)N(C5CCC(=O)NC5=O)C6=O)cc4)CC3)CC2)cc1Nc1cccc(-c2ncn(C)n2)c1OC (stereo not shown)
++ (51-75% degradation)

Please state recorded Tyk2 Degradation Score (tested on TYK2 (Homo sapiens, UniProt P29597)) of CNC(=O)c1nnc(NC(=O)CCN2CCC(C3CN(c4ccc5c(c4)C(=O)N(C4CCC(=O)NC4=O)C5=O)C3)CC2)cc1Nc1cccc(-c2ncn(C)n2)c1OC (stereo not shown)
+ (25-50% degradation)

Please state recorded Tyk2 Degradation Score (tested on TYK2 (Homo sapiens, UniProt P29597)) of CNC(=O)c1nnc(NC(=O)CCN2CCC(CCCN3CCN(c4ccc5c(c4)C(=O)N(C4CCC(=O)NC4=O)C5=O)CC3)CC2)cc1Nc1cccc(-c2ncn(C)n2)c1OC (stereo not shown)
+++ (>75% degradation)
